System: DU145 (prostate cancer)
ASSAY NOTES: Effect of compounds on tumor cell lines (assay of Latham et al.), DU145
Type: cell-based
STUDY CONDITIONS: DU145 cells, 96 hours after treatment, 1 μM to 100 μM; read-out: DU 145 potency (IC50)
VALUE TYPE: IC50

>  <SAMPLE SMILES>
O=C(C(=Cc1ccc(Cl)cc1)SCc1ccccc1Cl)c1ccc(Cl)cc1

>  <VALUE TYPE>
IC50

>  <MEASURED RESULT>
10 to 25 µM

$$$$
>  <SAMPLE SMILES>
O=C(C(=Cc1ccc(OCc2ccccc2)cc1)SCc1ccccc1Cl)c1ccccc1Cl

>  <VALUE TYPE>
IC50

>  <MEASURED RESULT>
1 to 10 µM

$$$$
>  <SAMPLE SMILES>
O=C(C(=Cc1c(O)cc(O)cc1O)SCc1ccc(Cl)cc1Cl)c1ccc(Cl)cc1

>  <VALUE TYPE>
IC50

>  <MEASURED RESULT>
25 to 50 µM

$$$$
>  <SAMPLE SMILES>
CCN(CC)CCNC(=O)c1ccc(C(=O)C(=Cc2ccc(F)c([N+](=O)[O-])c2)SCc2ccc(Br)cc2)cc1

>  <VALUE TYPE>
IC50

>  <MEASURED RESULT>
1 to 10 µM

$$$$
>  <SAMPLE SMILES>
O=C(O)c1ccc(C(=O)C(=Cc2ccc([N+](=O)[O-])c(O)c2)SCc2ccc(Br)cc2)cc1

>  <VALUE TYPE>
IC50

>  <MEASURED RESULT>
10 to 25 µM

$$$$

// lookup IC50 | system=DU145 (prostate cancer) | key= "O=C(C(=Cc1ccc(O)cc1)SCc1ccc(Cl)c(Cl)c1)c1ccc(Cl)cc1"
1 to 10 µM

// lookup IC50 | system=DU145 (prostate cancer) | key= "O=C(C(=Cc1ccc(F)cc1)SCc1ccc(Br)cc1)c1ccc(SCc2ccc(Br)cc2)c([N+](=O)[O-])c1"
> 100 µM

// lookup IC50 | system=DU145 (prostate cancer) | key= "Cc1ccc(CSC(=Cc2ccc(Br)cc2)C(=O)c2ccc(Cl)cc2)cc1"
10 to 25 µM

---

Tested on: K562 (chronic myelogenous leukaemia)
ASSAY NOTES: Effect of compounds on tumor cell lines (assay of Latham et al.), K562
Assay type: cell-based
STUDY CONDITIONS: Table 3; K562 cells, examined 96 hours after treatment, 1 μM to 100 μM in DMSO; read-out: K 562 potency (IC50)
VALUE TYPE: IC50

>  <MOLECULE>
COc1cc(OC)c(/C=C(\C(=O)c2ccc(Cl)cc2)[S+]([O-])Cc2ccccc2Cl)c(OC)c1 (centres unmarked)

>  <MEASURED RESULT>
50 to 100 µM

$$$$

// switching to the query molecule
Which value of IC50 has been reported for O=C(/C(=C\c1ccc(F)cc1C(F)(F)F)[S+]([O-])Cc1ccc(Cl)cc1)c1ccc(Cl)cc1 (centres unmarked) in the records?
50 to 100 µM

---

Test system: DU145 (prostate cancer)
ASSAY NOTES: Effect of compounds on tumor cell lines (assay of Latham et al.), DU145
Type: cell-based
STUDY CONDITIONS: DU145 cells, 96 hours after treatment, 1 μM to 100 μM; read-out: DU 145 potency (IC50)
pIC50: −log10 of the molar value.
VALUE TYPE: pIC50

>  <SAMPLE SMILES>
O=C(C(=Cc1ccc([N+](=O)[O-])cc1)SCc1ccc(Cl)cc1)c1ccc(Cl)cc1

>  <VALUE TYPE>
pIC50

>  <MEASURED RESULT>
5.00 to 6.00

$$$$

// lookup pIC50 | system=DU145 (prostate cancer) | key= "CN(C)c1ccc(C=C(SCc2ccc(F)cc2)C(=O)c2ccc(C(=O)O)cc2)cc1"
4.30 to 4.60

// lookup pIC50 | system=DU145 (prostate cancer) | key= "O=C(C(=Cc1ccc(OCc2ccccc2)cc1)SCc1ccc(Cl)cc1Cl)c1ccc(Cl)cc1"
5.00 to 6.00

// lookup pIC50 | system=DU145 (prostate cancer) | key= "O=C(O)c1ccc(C(=O)/C(=C\c2ccc(Br)c([N+](=O)[O-])c2)SCc2ccc(Br)cc2)cc1"
5.00 to 6.00

// lookup pIC50 | system=DU145 (prostate cancer) | key= "O=C(C(=Cc1cc(Br)c(O)c(Br)c1)SCc1ccc(Br)cc1)c1ccc(Br)cc1"
5.00 to 6.00

// lookup pIC50 | system=DU145 (prostate cancer) | key= "CN(C)c1ccc(C=C(SCc2ccc(F)cc2)C(=O)c2ccc(Br)cc2)cc1"
4.30 to 4.60

// lookup pIC50 | system=DU145 (prostate cancer) | key= "CN1CCN(CCNc2ccc(C=C(SCc3ccc(F)cc3)C(=O)c3ccc(F)cc3)cc2[N+](=O)[O-])CC1"
5.00 to 6.00

All values here come from patent US8808702B2.
